Where these numbers come from: paper PMC11714206

# Target Desc: MAL^TIR (Homo sapiens)
# Construct: MAL (residues 79–221); 6xHis; made in house; host or cells: E. coli BL21 (DE3)
# Assay Name: T‐Surf phage library (P8 and P3) selection against MAL^TIR, four rounds, NGS read counts
# Assay type: binding
# Measurement Context: P8_MAL: rank by count after grouping
Consider the cut-off 200. If the recorded Rank (after) is strictly smaller, the label is 1.0; if not, the label is 0.0.

Use these answered entries as a reference point.
YFLHSLLISLTDPAYI : 0.0
AFLCTFLINLTHNTTF : 1.0

Lookup: Lab note: Rank (after) threshold 200. Does this sequence come in strictly under it? TFLGHLYNTLVHAGTH
Found: 0.0

Lookup: Problem: For the sequence AFFWPQLKSVLGNPTK , is Rank (after) under 200?
Found: 1.0

Lookup: Hello, I'm reviewing records and need to know if Rank (after) of AYAYSRLVLLPLLELS is below 200. Could you check?
Found: 0.0

Lookup: For AFQYTFLFNLTHPTNF , is the recorded Rank (after) below the cut-off of 200?
Found: 1.0

Lookup: Is Rank (after) of WFYERLVRLFLRDTKV strictly below 200?
Found: 0.0

Lookup: Please check: Rank (after) for RNNFICHLYQELYRIG , strictly under 200 or not?
Found: 0.0

Lookup: A record lists SLLYDYLRCLGIRAIL . Is its Rank (after) below 200?
Found: 0.0

Lookup: Find out if reported Rank (after) for AFLGTAAYRAGQTDD is less than 200
Found: 0.0

====

# Target Desc: MAL^TIR (Homo sapiens, UniProt P58753)
# Construct: MAL (residues 79–221); 6xHis; made in house; host or cells: E. coli BL21 (DE3)
# Sequence (P58753 79-221): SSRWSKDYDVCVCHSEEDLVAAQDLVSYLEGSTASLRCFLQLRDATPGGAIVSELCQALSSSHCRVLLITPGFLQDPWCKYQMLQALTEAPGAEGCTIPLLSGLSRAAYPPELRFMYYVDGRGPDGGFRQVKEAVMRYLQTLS
# Assay Name: T‐Surf phage library (P8 and P3) selection against MAL^TIR, four rounds, NGS read counts
# Type: binding
# Measurement Context: P8_MAL: rank by count before grouping
Measured Quantity: Rank (before)
One number for each entry.

Worked cases, Rank (before) given:
KLIQGGCLYRLLKIEQ : 2752
YFLHFLLFSRPEPAYI : 1463
TFLGPLYNALVQAGIP : 2553

Parameter requested: Rank (before). Apply to each item below.
1. LCFCESLKQLLRSDGR
2. HFSRIQLKSRLGETSF

Found:
1. 2161
2. 2425

Return reported Rank (before) values for all items listed beneath this line.
1. AFLYTFLINLTHPPI
2. AFFCAQLKRVLGNPTM

Found:
1. 1854
2. 1724

List Rank (before) for every entry below, keeping the order given.
1. AFFWQQLKSVPGNPTM
2. AFLCTFLINLTHNTTF
3. TFLDTLLNKLAQAAIH
4. AFFGEQVSPVLGKPTM
5. AFLYTFLKNLTHPTTF
6. AFLGTAAYRAGQTDD

Found:
1: 1718; 2: 1757; 3: 2626; 4: 1748; 5: 1875; 6: 1777

====

Kindly supply the reported Rank (after) values for the records listed here.
# Target Desc: MAL^TIR (Homo sapiens, UniProt P58753)
# Construct: MAL (residues 79–221); 6xHis; made in house; host or cells: E. coli BL21 (DE3)
# Assay Name: T‐Surf phage library (P8 and P3) selection against MAL^TIR, four rounds, NGS read counts
# Type: binding
# Measurement Context: P8_MAL: rank by count after grouping
One number for each entry.

Below, each entry is followed by its recorded Rank (after) result.
TFLDRLYNPLVHAGIH : 400
AFLYTFLINLTHLPNF : 95
WFYERLVGLIMRDTKV : 129
RLLKWKEALHQFHSWV : 115
SPQEQDGFWVRLIEAL : 466
TFLCHLYSTLVQARIH : 402

Would you mind listing Rank (after) for each of the following sequences?
1. WFYERLVSLMLRDKKV
2. AFLYDFLINLTHQTNF
3. RNFVADLYQALANKGI
4. WIYERLVSRILRDTKV
5. PFLGHLSNALVQAGIH
6. AFCWAQLKSVLGNPTR
7. WFYERLVSLLLRATKV
8. KLLWEKCTFFLPSLSR

Found:
[172, 159, 131, 163, 132, 123, 170, 429]

Your task in this section: give Rank (after) for each listed record.
1. ALLNNFLIKLTHPSII
2. PQDLEWFYERLVSLIL
3. AFFGEQVSPVLGKPTM
4. LFFWESLKPLPRRDGR
5. AFFWEQLRTLLSKPTM

Found:
[448, 423, 426, 467, 433]

Could you tell me Rank (after) for each of these sequences? They are listed below.
1. AFFWPQLKSMLRNTTV
2. LFFWESLKNVLGSDGR

Found:
418
431

====

Kindly supply the reported P8_MyD88 Rank (after) values for the records listed here.
# Target Desc: MyD88^TIR (Homo sapiens, UniProt Q99836)
# Construct: MyD88 (residues 148–296); 6xHis; made in house; host or cells: E. coli BL21 (DE3)
# Sequence (Q99836 148-296): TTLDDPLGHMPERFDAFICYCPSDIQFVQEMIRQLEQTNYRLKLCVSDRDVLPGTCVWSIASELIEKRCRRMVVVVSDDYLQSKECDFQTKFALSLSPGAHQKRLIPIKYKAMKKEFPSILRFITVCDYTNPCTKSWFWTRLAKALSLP
# Assay Name: T‐Surf phage library (P8 and P3) selection against MyD88^TIR, four rounds, NGS read counts
# Format: binding
# Measurement Context: P8 library, selection against MyD88, rank by count after grouping
Answers are plain numbers.

Please give P8_MyD88 Rank (after), item by item, for the list that follows.
1. WALDELLQILHARRTE
2. DPQEQLSFCERLITVF
3. WALDELLKILCANKTM
4. LGYHWVDWEDLLSIEE
5. MEANSSRIWHRLLYSV
6. YAASPWWLVELVQIVG
7. DYASNTFLLRELLQIA
8. DPLHLDWHYERLVSTD

Found:
1. 702
2. 743
3. 766
4. 730
5. 769
6. 752
7. 746
8. 680

Please state P8_MyD88 Rank (after) for every sequence in the list that follows.
1. WDFSGNIEQFWDRLYY
2. NELVHVWSSKANSLVG
3. GWAWDYLLPNLEGPAG
4. RFGGDTFLEYLVLISM
5. DPQELDWIYQRLVSLF
6. LGYHLIVWEYFVGIED

Found:
[758, 696, 703, 765, 714, 744]

Provide each entry's P8_MyD88 Rank (after) from the list below.
1. IWVWDFYNSQLEGPMG
2. PRDLEWFYEHLVSLIL
3. WRWMNCCRFCMRVNC
4. QDLGWFYERLFSQM

Found:
1. 753
2. 736
3. 729
4. 735

// batch mode: one P8_MyD88 Rank (after) value per listed entry
1. SDVDHLTYLVRVRLCR
2. YPQELDWCYERLVSLL
3. LGYQWIDWEFFVGIED
4. WALDELLQILHVSEMF
5. DWVWDYLLPIWKAQR
6. DMQDIEWFYVKLIVSI
7. NQWRNALTAAANLSGW
8. DPQELDWFYELLVSPF

Found:
[728, 762, 756, 747, 704, 754, 734, 689]

Lookup result for DWEWEYLRPNLEGTAG ; measured P8_MyD88 Rank (after): 768

====

I'd be grateful if you could share measured P8_MAL Rank (after) for these entries.
# Target Desc: MAL^TIR (Homo sapiens, UniProt P58753)
# Construct: MAL (residues 79–221); 6xHis; made in house; host or cells: E. coli BL21 (DE3)
# Assay Name: T‐Surf phage library (P8 and P3) selection against MAL^TIR, four rounds, NGS read counts
# Format: binding
# Measurement Context: P8 library, selection against MAL TIR; rank by count after grouping

KLFWEKFKFFRPSLSC : 226
YASSSWALDELLRILY : 227
WFYECLVSLILRVTKV : 217
TFLCHQYNALVQAGIH : 219
SFYWRQVSIILGDPTV : 249
WFYERMVRLILRDTKV : 247
WFYERLVSLIQRDTTV : 212
LFFWDSLKQLMRSDGR : 283

// each listed sequence needs a value for P8_MAL Rank (after)
1. AYANFRQGLLRLPELLR
2. AFFWARLQSVLGNPTM
3. SLQYAHLRWLGIRAFL
4. WFYERMVSMILRDTKV

Found:
[278, 243, 206, 280]

====

# Target Desc: MAL^TIR (Homo sapiens, UniProt P58753)
# Construct: MAL (residues 79–221); 6xHis; made in house; host or cells: E. coli BL21 (DE3)
# Assay Name: T‐Surf phage library (P8 and P3) selection against MAL^TIR, four rounds, NGS read counts
# Type: binding
# Measurement Context: P3_MAL: rank by count after grouping
Provide the recorded Rank (after) for the entries that follow.
Numbers only.

Example entries begin here.
RNLAGLVYDCLTKTGA : 407
YAFTGHLHHYFAAKGIKM : 385
VELAQVRKQRDAGEKV : 412
NQWRNSLTAAANLSGR : 176
YLKWGDPYFWSKLRYAM : 159

Parameter requested: Rank (after). Apply to each item below.
1. WHFPLPLRMQELLRKM
2. NGHGSAIIKEIVVTSW
3. TRFCDRRCLTVAGSSA
4. SSFRERLWRLLELRKK

Found:
[436, 468, 409, 128]
